target: human nociceptin/orphanin FQ peptide (hNOP) receptor (Homo sapiens (Human), UniProt P41146); assay: hNOP receptor binding assay (SPA)
pKi: −log10 of the molar value.
observation-type: pKi

[
  {
    "chemical-string": "COc1nc(C#N)ncc1N1C[C@]2(C[C@](c3ccccc3)(N(C)C)C2)NC1=O",
    "test-result": 6.43
  },
  {
    "chemical-string": "CN(C)[C@]1(c2cccc(F)c2)C[C@@]2(CN(CCS(C)(=O)=O)C(=O)N2CC2CC2)C1",
    "test-result": 7.82
  },
  {
    "chemical-string": "CN(C)[C@]1(c2ccccc2)C[C@@]2(CN(CC(=O)N3CCS(=O)(=O)CC3)C(=O)N2CC2CCC2)C1",
    "test-result": 9.00
  },
  {
    "chemical-string": "CN(C)[C@]1(c2cccc(F)c2)C[C@@]2(CN(Cc3ccc(N4CCOCC4)cc3)C(=O)N2)C1",
    "test-result": 7.68
  },
  {
    "chemical-string": "Cc1cc(C#N)ncc1N1C[C@]2(C[C@](c3cccc(F)c3)(N(C)C)C2)N(CC2CC2)C1=O",
    "test-result": 7.89
  }
]
